- measuredOn: Mot3 (UniProt P54785)
- Sequence: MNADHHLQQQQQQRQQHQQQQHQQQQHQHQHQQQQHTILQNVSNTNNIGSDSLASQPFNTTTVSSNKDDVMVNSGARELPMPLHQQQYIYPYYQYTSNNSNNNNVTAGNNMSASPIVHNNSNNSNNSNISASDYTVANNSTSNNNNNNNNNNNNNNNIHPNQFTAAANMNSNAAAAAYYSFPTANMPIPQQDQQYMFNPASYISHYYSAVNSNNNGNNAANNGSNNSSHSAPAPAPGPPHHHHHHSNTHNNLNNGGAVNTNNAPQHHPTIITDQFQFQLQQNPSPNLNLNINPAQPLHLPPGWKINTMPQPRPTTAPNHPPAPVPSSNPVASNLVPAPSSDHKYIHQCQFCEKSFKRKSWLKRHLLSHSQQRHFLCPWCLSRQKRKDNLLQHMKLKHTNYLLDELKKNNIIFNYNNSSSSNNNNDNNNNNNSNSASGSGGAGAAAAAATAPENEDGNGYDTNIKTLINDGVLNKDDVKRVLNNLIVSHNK
- assayText: PBM E-score (8-mer binding enrichment) (E-score (-0.5 to 0.5)); higher = stronger / more preferred TF binding
- conditionContext: protein concentration: 200 nM; construct: GST-full length
Over roughly 33,000 sequences, “E-score (-0.5 to 0.5)” has its median near -0.035; the highest 2% begin near 0.34. Shown is part of a subset that was picked to be rich in the highest values.
Response key: class 1 means PBM E-score >= -0.01; class 0 means PBM E-score < -0.01.

-- ask Has AATTACAC a recorded PBM E-score greater than or equal to -0.01?
-- reply class 1

-- ask Hi, just wondering whether AAATGCCA shows PBM E-score of -0.01 or higher.
-- reply class 0

-- ask State whether the measured PBM E-score reaches -0.01, counting equality as reaching it, for AATTACAA
-- reply class 1

-- ask Exam item: decide whether the reported PBM E-score for CACTGGTA is at least -0.01.
-- reply class 1

-- ask Check the entry AAATGCCT : does PBM E-score equal or exceed -0.01?
-- reply class 1

-- ask Please indicate if the recorded PBM E-score for CAGTTCCC meets or exceeds -0.01.
-- reply class 0

-- ask I'd appreciate it if you could say whether GGAGGCCA has PBM E-score at least equal to -0.01.
-- reply class 0

-- ask Has AAGTGCCC a recorded PBM E-score greater than or equal to -0.01?
-- reply class 0

-- ask Reported PBM E-score reaches at least -0.01 for CGAGGCAC ?
-- reply class 1

-- ask Check if PBM E-score >= -0.01 (inclusive). Item: ACATGCGT
-- reply class 1

-- ask Confirm if PBM E-score reported for the sequence ACATGTAA is -0.01 or above.
-- reply class 1

-- ask hey, is PBM E-score for this one >= -0.01? CGGCCACA
-- reply class 0

-- ask Does the sequence CCATGTAA have recorded PBM E-score that is -0.01 or more?
-- reply class 1

-- ask Is it the case that TATTTCAA has PBM E-score reaching or exceeding -0.01?
-- reply class 1

-- ask Exam item: decide whether the reported PBM E-score for TCAACCAA is at least -0.01.
-- reply class 1

-- ask Given the entry AGGTACAA , answer whether its PBM E-score meets or surpasses -0.01.
-- reply class 1

-- ask Does the sequence TGAGGGCA have recorded PBM E-score that is -0.01 or more?
-- reply class 0

-- ask Determine whether measured PBM E-score meets or exceeds -0.01 for GGGTACAA
-- reply class 0

-- ask Please tell me: is the sequence GCCCGGTA at or over -0.01 in terms of PBM E-score?
-- reply class 0

-- ask Is the recorded value of PBM E-score equal to or greater than -0.01 for this sequence? CTGTTTAC
-- reply class 1

-- ask API: above_or_equal(metric=PBM E-score, cutoff=-0.01) for item AGAGGCAA
-- reply class 1

-- ask Does PBM E-score meet or surpass -0.01 for CAAGCGTC ?
-- reply class 0

-- ask State whether the measured PBM E-score reaches -0.01, counting equality as reaching it, for AATTACCC
-- reply class 0

-- ask Does the reported PBM E-score for ACATGCGC fall at or above the -0.01 mark?
-- reply class 1

-- ask Could you tell me if the measured PBM E-score of ATGTACAG reaches -0.01 or more?
-- reply class 1

-- ask Reported PBM E-score at or above -0.01? AGAAACTA
-- reply class 0

-- ask For this sequence, is measured PBM E-score -0.01 or higher? TGAGGCAA
-- reply class 1

-- ask Is PBM E-score at least -0.01? Consider CGCGCCAA
-- reply class 0

-- ask Please indicate if the recorded PBM E-score for GGTCTAAA meets or exceeds -0.01.
-- reply class 0

-- ask Reported PBM E-score at or above -0.01? ACATGCCT
-- reply class 1

-- ask Please tell me: is the sequence AGGTACAC at or over -0.01 in terms of PBM E-score?
-- reply class 1

-- ask Please tell me: is the sequence CCACTCGA at or over -0.01 in terms of PBM E-score?
-- reply class 0

-- ask Assess whether reported PBM E-score for ATGTACAT sits at -0.01 or higher.
-- reply class 1

-- ask Does the sequence GAGGCAGC have recorded PBM E-score that is -0.01 or more?
-- reply class 0

-- ask Given GACGGTTA , state whether its PBM E-score is at least -0.01.
-- reply class 0

-- ask # bool: PBM E-score of AGGTACAG >= -0.01
-- reply class 1

-- ask Does PBM E-score meet or surpass -0.01 for GGAGGCGA ?
-- reply class 0

-- ask Tell me whether PBM E-score is at least -0.01 here: ATCCGGTG
-- reply class 1

-- ask Quick check: does ATGTACAC have PBM E-score greater than or equal to -0.01?
-- reply class 1

-- ask Reported PBM E-score reaches at least -0.01 for AAGTGCCT ?
-- reply class 1

-- ask Threshold query (PBM E-score >= -0.01) on GGGGGGAC
-- reply class 0

-- ask Has CCATGTGA a recorded PBM E-score greater than or equal to -0.01?
-- reply class 1

-- ask In plain terms: is recorded PBM E-score at least -0.01 for CGGTACAC ?
-- reply class 1

-- ask Check if PBM E-score >= -0.01 (inclusive). Item: ACATGCCA
-- reply class 1

-- ask Determine whether this sequence has PBM E-score no lower than -0.01: ACATGTCT
-- reply class 1

-- ask Does ACATGTGA have a reported PBM E-score of at least -0.01?
-- reply class 1
